Data origin: PubChem BioAssay AID328

tested on: BDF1 mice, P388 leukemia ip, median survival T/C; assay: NCI In Vivo Anticancer Drug Screen. Data for tumor model P388 Leukemia (intraperitoneal) in B6D2F1 (BDF1) mice; conditions: endpoint: median survival time; dose: 400.0 mg/kg/injection; schedule: Q04DX003 (ip); vehicle: saline
Toxic doses and inconclusive results are not listed. The calls were made as follows: active = survival T/C of 150% or more; inactive = T/C below 125% in these data. Non-standard residues stand in square brackets, D forms with d. Residues, ends and D or L forms follow the SMILES beside them. ξ: configuration not given here. ξF = NC(Cc1ccccc1)C(=O)O
Return exactly one item of 1 = active, -1 = inactive

Illustrative cases are given below, each with its answer.
INSERT INTO measurements (molecule, subject_of_test, label) VALUES
  ('CCOCCC(O)CC (stereo not given)', 'BDF1 mice, P388 leukemia ip, median survival T/C', -1),
  ('C[C@]12CC[C@@H]3c4ccc(OC5CCCCO5)cc4CC[C@H]3[C@@H]1CC[C@@H]2O (stereo not given in full)', 'BDF1 mice, P388 leukemia ip, median survival T/C', -1),
  ('O=C(OCCBr)c1ccccc1[N+](=O)[O-]', 'BDF1 mice, P388 leukemia ip, median survival T/C', -1),
  ('O=C(Cn1cc(F)c(=O)[nH]c1=O)c1ccco1', 'BDF1 mice, P388 leukemia ip, median survival T/C', -1),
  ('OCCN1CCNC1=S', 'BDF1 mice, P388 leukemia ip, median survival T/C', -1);

Task: // outcome(item) with item = CC(CS(=O)(=O)O)N1CCOCC1 (stereo not given)
Result: -1

Task: // outcome(item) with item = CNNCc1ccc(C(=O)NC(N)=O)cc1
Result: -1

Task: // outcome(item) with item = C#CC1(OCC2CN(c3ccccc3)C(=O)O2)CCCCC1 (stereo not given)
Result: -1

Task: // outcome(item) with item = NC(Cc1ccccc1)C(=O)NCC(=O)O (stereo not given) (H-[ξF]-Gly-OH)
Result: -1

Task: // outcome(item) with item = CC#CCOCC1CN(c2ccccc2)C(=O)O1 (stereo not given)
Result: -1

Task: // outcome(item) with item = CCOC(=O)c1cc(C)nnc1C(=O)OCC
Result: -1

Task: // outcome(item) with item = CC(=O)Nc1ccc(C)c([N+](=O)[O-])c1
Result: -1

Task: // outcome(item) with item = CC(=O)N1C(=O)NC(=O)C1(CSCc1ccccc1)CSCc1ccccc1
Result: -1

Task: // outcome(item) with item = CCOC(=O)CCN1CCCCC1
Result: -1

Task: // outcome(item) with item = CC(=O)NC1CCCC(O)C1 (stereo not given)
Result: -1

Task: // outcome(item) with item = O=C(COCc1ccccc1)OCc1ccccc1
Result: -1

Task: // outcome(item) with item = CCC(=O)c1cc(OC)cc(OC)c1
Result: -1

Task: // outcome(item) with item = CCCCCCCCNC(=O)C1OC(n2cnc3c(N)ncnc32)C(O)C1O (stereo not given)
Result: -1

Task: // outcome(item) with item = CNC(=O)C(C)(C)Br
Result: -1

Task: // outcome(item) with item = CCOC(=O)CSC(=S)SCC(=O)OCC
Result: -1

Task: // outcome(item) with item = O=C(O)C(CS(=O)(=O)O)Nc1ncnc2nc[nH]c12 (stereo not given)
Result: -1

Task: // outcome(item) with item = Cn1c(=N)ccn(C2OC(CO)C(O)C2O)c1=O (stereo not given) (tested in a mixture with another compound)
Result: 1

Task: // outcome(item) with item = c1ccc(-c2c[n+]3cc4ccccc4cc3cn2)cc1
Result: -1

Task: // outcome(item) with item = O=C(O)c1cc(I)cc(I)c1
Result: 1

Task: // outcome(item) with item = CCSCCSCC
Result: -1
